- SYSTEM NAME: Sho1, P40073
- Sequence (P40073 287-367): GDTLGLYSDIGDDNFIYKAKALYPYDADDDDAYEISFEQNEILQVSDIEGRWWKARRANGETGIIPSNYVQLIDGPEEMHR
- EXPERIMENT: SPOT array
- MEASUREMENT PARAMETERS: median of control spots 1148
// classify: if (SPOT intensity < 100) Met else Not met

input: I'd appreciate it if you could check whether `GRLRPKRIAPWHLIQ` has SPOT intensity smaller than 100.
output: Met

input: I'd appreciate it if you could check whether `VPPPMQPPPIESSNL` has SPOT intensity smaller than 100.
output: Met

input: I'd appreciate it if you could check whether `ALRRRLPVTRSKINW` has SPOT intensity smaller than 100.
output: Not met

input: I'd appreciate it if you could check whether `RLSRLLLSLPPESFT` has SPOT intensity smaller than 100.
output: Met

input: I'd appreciate it if you could check whether `GTIARPLFLVVLFFI` has SPOT intensity smaller than 100.
output: Met

input: I'd appreciate it if you could check whether `NMLKKKPLKKPLKRF` has SPOT intensity smaller than 100.
output: Not met

input: I'd appreciate it if you could check whether `SKSRLLIELPEGFFT` has SPOT intensity smaller than 100.
output: Met

input: I'd appreciate it if you could check whether `GLRRARYKFPGQQKI` has SPOT intensity smaller than 100.
output: Met

input: I'd appreciate it if you could check whether `RRSKSLPITPKSIFN` has SPOT intensity smaller than 100.
output: Not met

input: I'd appreciate it if you could check whether `EQEEIAPSLPSRNSI` has SPOT intensity smaller than 100.
output: Met

input: I'd appreciate it if you could check whether `DTFLPPPPPPPSNFE` has SPOT intensity smaller than 100.
output: Met

input: I'd appreciate it if you could check whether `RRARRQMGIPTISQV` has SPOT intensity smaller than 100.
output: Met

input: I'd appreciate it if you could check whether `APPPPPRRATPEKKP` has SPOT intensity smaller than 100.
output: Met

input: I'd appreciate it if you could check whether `ERPKRRAPPPVPKKP` has SPOT intensity smaller than 100.
output: Not met

input: I'd appreciate it if you could check whether `PLQSKIPMLPSRRTM` has SPOT intensity smaller than 100.
output: Met

input: I'd appreciate it if you could check whether `VLRFLGFPLPIFEKG` has SPOT intensity smaller than 100.
output: Met

input: I'd appreciate it if you could check whether `WTQRRGPLVVYAEDN` has SPOT intensity smaller than 100.
output: Met

input: I'd appreciate it if you could check whether `STPQTMRQAPKRPDA` has SPOT intensity smaller than 100.
output: Met

input: I'd appreciate it if you could check whether `KDKSRPPRPPPKPLH` has SPOT intensity smaller than 100.
output: Not met

input: I'd appreciate it if you could check whether `TKFRISLGLPVGAIM` has SPOT intensity smaller than 100.
output: Not met

input: I'd appreciate it if you could check whether `SRYRRPLTLLLLKPF` has SPOT intensity smaller than 100.
output: Met

input: I'd appreciate it if you could check whether `LYKRKPILLPDPKPL` has SPOT intensity smaller than 100.
output: Met

input: I'd appreciate it if you could check whether `FSRRQSMDIPSKNRN` has SPOT intensity smaller than 100.
output: Met

input: I'd appreciate it if you could check whether `RRRRRPHRIERPLSN` has SPOT intensity smaller than 100.
output: Not met

input: I'd appreciate it if you could check whether `HKVLRPFLLRRLKKD` has SPOT intensity smaller than 100.
output: Met

input: I'd appreciate it if you could check whether `IFLRISINFPLNYPN` has SPOT intensity smaller than 100.
output: Not met

input: I'd appreciate it if you could check whether `PVLPPPRSPNRPTLS` has SPOT intensity smaller than 100.
output: Met

input: I'd appreciate it if you could check whether `TIRRRAPLSLLESHT` has SPOT intensity smaller than 100.
output: Met

input: I'd appreciate it if you could check whether `NHSRSLFSLPGNQQS` has SPOT intensity smaller than 100.
output: Not met
